- System: P388 leukemia ip, CD2F1 mice, survival T/C
- ASSAY_EXPLANATION: NCI In Vivo Anticancer Drug Screen. Data for tumor model P388 Leukemia (intraperitoneal) in CD2F1 (CDF1) mice
- MEASUREMENT_SETUP: endpoint: median survival time; dose: 60.0 mg/kg/injection; schedule: Q01DX005 (ip); vehicle: Klucel (hydroxypropylcellulose) (HPC); higher = longer survival
Inconclusive results and toxic doses are left out.
QUANTITY_NAME: T/C

COMPOUND | T/C
CCOC(=O)C(=C\c1nncn1-c1ccccc1)/C=C(/O)c1ccccc1 | 87 % of control
CCC(C)Nc1c(N)cc(C(F)(F)F)cc1N (centres undefined) | 98 % of control
O=C1CCC(=O)N1CN(CS(=O)(=O)c1ccc(Cl)cc1)c1ccc(Cl)cc1 | 90 % of control
CCOC(=O)CN(CC(=O)OCC)c1ccccc1OCCOc1ccccc1N(CC(=O)OCC)CC(=O)OCC | 95 % of control
C/C(=N/N=C(N)N)c1cnn(C(=N)N)c1C | 99 % of control
CCO/C=C(\C)CC1([N+](=O)[O-])C(=O)c2ccccc2C1=O | 107 % of control
COc1cc(C2c3cc4c(cc3OC3(N5CCCC5)CCCCC23)OCO4)cc(OC)c1OC (centres undefined) | 99 % of control
Cc1cc(NS(=O)(=O)c2ccc(NC(=O)NCCCl)cc2)no1 | 98 % of control
CN(C)C1=Nc2ccc(Cl)cc2C(c2ccccc2)=NC1O (centres undefined) | 95 % of control
OC1c2ccccc2C(O)c2c1ccc1c2CN(Cc2ccccc2)CC1 (centres undefined) | 89 % of control

Per the record, "O=C(CSC(SCC(=O)Nc1ccccc1)c1ccccc1)Nc1ccccc1" has T/C of 101 % of control

Per the record, "CCc1nc2c(Br)c3oc(CC)nc3c(C)c2o1" has T/C of 97 % of control

Per the record, "CC(C)(C)COc1ccc2c(c1)C1=NC2=NC2=NC(=NC3=NC(=NC4=NC(=N1)c1ccc(OCC(C)(C)C)cc14)c1ccc(OCC(C)(C)C)cc13)c1ccc(OCC(C)(C)C)cc12" has T/C of 99 % of control

Per the record, "O=C(COc1cccc2oc3ccccc3c(=O)c12)N/N=C/c1ccc(N(CCCl)CCCl)cc1" has T/C of 97 % of control

Per the record, "O=C1c2c(O)cccc2C(Br)c2cccc(O)c21" has T/C of 107 % of control

Per the record, "COc1ccc2c(c1)CCc1c-2n[nH]c1-c1[nH]nc2c1CCc1cc(OC)ccc1-2" has T/C of 93 % of control

Per the record, "C1COCCOCCOCCO1.[Br][Sn]([Br])([Br])[Br]" has T/C of 103 % of control

Per the record, "COc1ccc(-c2cc(=O)c3c(O)cc(O)cc3o2)cc1Oc1ccc(-c2cc(=O)c3c(O)cc(O)cc3o2)cc1" has T/C of 96 % of control

Per the record, "CCOc1c(N=Nc2ccc(OC)cc2)c(C)nn1C(=S)S" has T/C of 115 % of control

Per the record, "O=c1c(CO)c(-c2ccccc2)sc2ccccc12" has T/C of 96 % of control

Per the record, "Cc1cc2c(=O)cc(-c3ccc(Cl)cc3)oc2c(C#N)c1C" has T/C of 89 % of control

Per the record, "CN(C)C(=O)c1ccccc1SC(=S)NCc1ccccc1" has T/C of 102 % of control

Per the record, C=C1C(=O)OC2C(OC(=O)CC(C)C)CCCC12 (centres undefined) has T/C of 94 % of control

Per the record, Cc1cc(C)c(C(CC(=O)O)C(CC(=O)O)c2c(C)cc(C)cc2C)c(C)c1 (centres undefined) has T/C of 90 % of control

Source of measurements: PubChem BioAssay AID330
